Examples of molecules with documented GI50 follow.
system: LOX IMVI; test: NCI tumour cell line growth inhibition, 48 h
Active and inactive are the calls of the source. Rule as the data show it: active = GI50 up to about 1.1 µM and inactive = higher.

{"molecule": "CSc1nc(C)c2c(n1)SCC2", "result-value": "> 10 µM (inactive)"}
{"molecule": "Cn1nc(-c2ccccc2)c(C(=O)/C=C/c2ccc(Cl)cc2)c(N2CCOCC2)c1=O", "result-value": "3.44 µM (inactive)"}
{"molecule": "CC(=O)NC(CC(C)C)C(=O)NC(CC(C)C)C(=O)NC(C=O)CCCNC(=N)N (centres undefined)", "result-value": "> 100 µM (inactive)"}
{"molecule": "CN(C)CCCC1c2ccccc2Oc2ccc(C(F)(F)F)cc21 (centres undefined)", "result-value": "15.6 µM (inactive)"}

Which GI50 value belongs to CC1(C)C2CCC13CS(=O)(=O)N1O[C@]13C(=O)O2 (some centres undefined) ?
> 100 µM (inactive)

What does the record list as GI50 for NC(=O)C1CCCN1C(=O)C(Cc1c[nH]cn1)NC(=O)C1CCCC1 (centres undefined) ?
> 100 µM (inactive)

Can you look up the measured GI50 of CC1(C)CC(/C=C2/OC(=O)c3ccccc32)=C(C(N)=O)C(=O)O1 for me?
> 100 µM (inactive)

Give its GI50 value. Item: CC1(c2nc3ccccc3[nH]2)CCC(C(=O)O)C(C)(C)O1 (centres undefined)
> 100 µM (inactive)

Given the molecule C[C@@H](N[C@H]1CCC[C@@H]1O)c1ccccc1.C[C@@H](N[C@H]1CCC[C@H]1O)c1ccccc1 , what is its reported GI50?
34.4 µM (inactive)

The origin of these recorded values is ChEMBL document CHEMBL1201862.
